# tgt: UniProt:Q96RI1
# Sequence (whole entry): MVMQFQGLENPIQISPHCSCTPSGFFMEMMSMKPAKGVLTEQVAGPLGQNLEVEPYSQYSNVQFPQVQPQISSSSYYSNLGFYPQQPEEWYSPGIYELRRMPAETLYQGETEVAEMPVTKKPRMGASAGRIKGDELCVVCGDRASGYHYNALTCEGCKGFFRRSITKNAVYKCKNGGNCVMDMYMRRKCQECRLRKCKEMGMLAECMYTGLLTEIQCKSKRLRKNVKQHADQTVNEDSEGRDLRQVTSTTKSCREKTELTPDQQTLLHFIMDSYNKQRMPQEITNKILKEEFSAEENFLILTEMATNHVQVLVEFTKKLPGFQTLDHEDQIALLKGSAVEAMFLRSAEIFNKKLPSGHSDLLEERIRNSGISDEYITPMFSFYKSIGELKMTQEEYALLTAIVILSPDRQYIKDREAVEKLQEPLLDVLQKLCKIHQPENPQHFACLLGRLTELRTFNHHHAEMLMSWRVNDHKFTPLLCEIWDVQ
# testName: Agonist activity at recombinant human GST-tagged FXR LBD (193 to 472 residues) expressed in baculovirus-infected insect cells assessed as recruitment of biotinylated SRC1 peptide measured after 1 hr by Alphascreen assay relative to CDCA

smi	tgt	readoutUnit	Efficacy
CC[C@H]1[C@@H](O)[C@@H]2[C@H](CC[C@]3(C)[C@@H]([C@H](C)CCC(=O)O)CC[C@@H]23)[C@@]2(C)Cc3cn[nH]c3C[C@@H]12	UniProt:Q96RI1	%	136
CC[C@H]1[C@@H](O)[C@@H]2[C@H](CC[C@]3(C)[C@@H]([C@H](C)CCc4cc(O)no4)CC[C@@H]23)[C@@]2(C)CC[C@@H](O)C[C@@H]12	UniProt:Q96RI1	%	121
CC[C@H]1[C@@H](O)[C@@H]2[C@H](CC[C@]3(C)[C@@H]([C@H](C)CCC(=O)O)CC[C@@H]23)[C@@]2(C)CCCC[C@@H]12	UniProt:Q96RI1	%	126
CC[C@H]1[C@@H](O)[C@@H]2[C@H](CC[C@]3(C)[C@@H]([C@H](C)CCCNS(C)(=O)=O)CC[C@@H]23)[C@@]2(C)CC[C@@H](O)C[C@@H]12	UniProt:Q96RI1	%	85
CC[C@H]1[C@@H](O)[C@@H]2[C@H](CC[C@]3(C)[C@@H]([C@H](C)CCNS(=O)(=O)C4CC4)CC[C@@H]23)[C@@]2(C)CC[C@@H](O)C[C@@H]12	UniProt:Q96RI1	%	87
CC[C@H]1[C@@H](O)[C@@H]2[C@H](CC[C@]3(C)[C@@H]([C@H](C)CCC(=O)NCC(=O)O)CC[C@@H]23)[C@@]2(C)CC[C@@H](O)C[C@@H]12	UniProt:Q96RI1	%	135
CC[C@H]1[C@@H](O)[C@@H]2[C@H](CC[C@]3(C)[C@@H]([C@H](C)CCNC(=O)OCc4cccs4)CC[C@@H]23)[C@@]2(C)CC[C@@H](O)C[C@@H]12	UniProt:Q96RI1	%	142
CC[C@H]1[C@@H](O)[C@@H]2[C@H](CC[C@]3(C)[C@@H]([C@H](C)CCNC(=O)OC4CCCCC4)CC[C@@H]23)[C@@]2(C)CC[C@@H](O)C[C@@H]12	UniProt:Q96RI1	%	140
